Target: rat brain acetylcholinesterase (Rattus norvegicus, UniProt P37136)
Sequence (P37136 32-614): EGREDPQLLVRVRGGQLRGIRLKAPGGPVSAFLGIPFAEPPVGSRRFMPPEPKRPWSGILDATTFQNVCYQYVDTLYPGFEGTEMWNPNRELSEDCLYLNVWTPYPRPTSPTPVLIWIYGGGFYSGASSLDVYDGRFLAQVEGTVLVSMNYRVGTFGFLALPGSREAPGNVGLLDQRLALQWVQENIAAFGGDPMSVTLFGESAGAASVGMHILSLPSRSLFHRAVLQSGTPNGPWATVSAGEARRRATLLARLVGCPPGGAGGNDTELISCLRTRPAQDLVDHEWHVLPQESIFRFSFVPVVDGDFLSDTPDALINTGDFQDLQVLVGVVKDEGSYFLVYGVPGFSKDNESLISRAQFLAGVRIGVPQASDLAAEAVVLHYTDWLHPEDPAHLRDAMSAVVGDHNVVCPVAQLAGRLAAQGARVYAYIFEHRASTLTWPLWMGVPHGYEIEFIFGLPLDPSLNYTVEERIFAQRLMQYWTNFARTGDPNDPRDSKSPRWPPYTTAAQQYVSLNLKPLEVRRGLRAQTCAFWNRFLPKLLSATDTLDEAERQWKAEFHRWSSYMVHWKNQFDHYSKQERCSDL

compound: COc1ccc(C(=O)O)c(C(O)CCCCCCCC(=O)CC(C)O)c1 (stereo not shown) [Sporotricolone]
IC50 (µM): 20
